Target: ATP-sensitive inward rectifier potassium channel 1 (Homo sapiens) (UniProt P48048)
Sequence (P48048 whole entry, looked up): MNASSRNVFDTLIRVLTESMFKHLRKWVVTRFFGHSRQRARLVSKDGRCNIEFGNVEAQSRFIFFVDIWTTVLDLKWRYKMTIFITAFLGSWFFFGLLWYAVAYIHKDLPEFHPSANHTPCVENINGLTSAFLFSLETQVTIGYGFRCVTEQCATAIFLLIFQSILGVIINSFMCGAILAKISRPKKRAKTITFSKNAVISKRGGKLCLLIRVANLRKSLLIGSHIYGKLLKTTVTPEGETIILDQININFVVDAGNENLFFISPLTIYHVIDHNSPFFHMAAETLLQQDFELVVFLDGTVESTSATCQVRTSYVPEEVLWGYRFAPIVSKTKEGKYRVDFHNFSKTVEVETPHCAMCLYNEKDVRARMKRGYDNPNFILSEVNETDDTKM
Test: ROMK channel inhibitor potency, dose response, cell-based, thallium flux, HEK293 (AID 2753)
Settings: fluorescence
Calls of active or inactive are those of the source. How the calls were made is not given here.
Possible outcomes: active, inactive

molecule: COc1cc2c(cc1OC)C(/C=C/c1ccco1)=NCC2
label class: active

molecule: O=C(O)c1ccc(Cn2cnc3scc(-c4ccccc4)c3c2=O)cc1
label class: active

molecule: O=C(c1ccc([N+](=O)[O-])cc1)N(Cc1ccc(Br)cc1)N1C(=O)CCCC1=O
label class: active

molecule: N#Cc1nc(N2CCCC2)nc(N2CCCC2)n1
label class: active

molecule: CC(NC(=O)/C(C#N)=C/c1cccs1)c1ccccc1 (stereo not given)
label class: active

molecule: COCc1cc(C)nc(SCC[N+](C)(C)CC(=O)Nc2cccc(C(F)(F)F)c2)c1C#N
label class: active

molecule: COCCCNc1ccc([N+](=O)[O-])cc1C(=O)Nc1cccc(C)n1
label class: active

molecule: CCOC(=O)CS(=O)(=O)c1nc(-c2ccccc2)cc(C(F)(F)F)n1
label class: active

molecule: N#C/C(=C\C1=C(N2CCOCC2)C(=C\c2ccccc2)/CC1)C(=O)Nc1ccccc1F
label class: active

molecule: COc1cccc(/C=C2\SC(=S)N(N3C(=O)CCCC3=O)C2=O)c1
label class: inactive

---

Molecular target: ATP-sensitive inward rectifier potassium channel 1 (Homo sapiens)
Assay: ROMK channel inhibitor potency, dose response, cell-based, thallium flux, HEK293 (AID 2753)
Conditions: fluorescence
Calls of active or inactive are those of the source. No rule for the calls is given here.

compound: O=C(O)c1cccc(CN2C(=O)S/C(=C/c3cccc([N+](=O)[O-])c3)C2=O)c1
IC50: 5.71 µM
--
compound: C=CCNC(=O)/C(C#N)=C\c1cc(Cl)c(OCC)c(OC)c1
IC50: 86.8 µM
--
compound: CCOCCCNC(=O)/C(C#N)=C/c1ccccc1F
IC50: inactive
--
compound: CCCNc1nc(Cl)nc(NC(C)(C)C)n1
IC50: 2.78 µM
--
compound: N#C/C(=C/c1cc(Br)cs1)C(=O)NCC1CCCO1 (stereo not drawn)
IC50: inactive
--
compound: CSC1=C(C#N)C(=O)NC(c2ccccc2O)S1 (stereo not drawn)
IC50: 7.63 µM
--
compound: Cc1cc2c(cc1S(=O)(=O)N(C)c1ccccc1)NC(=O)CO2
IC50: 0.909 µM
--
compound: COC(=O)C1=C(C)N(C)C(C)=C(C(=O)OC)C1c1ccccc1C
IC50: 39.9 µM
--
compound: COc1cc(NC(C)=O)c2ncccc2c1[N+](=O)[O-]
IC50: 21.1 µM
--
compound: O=C(Cn1nc(CNc2ccc(Cl)cc2)[n+]2c1CCCCC2)c1ccc(Cl)cc1
IC50: 5.52 µM
--
compound: CC(=O)c1ccc(N/N=C(/C(N)=O)C2=NC(C)(C)Cc3ccccc32)cc1
IC50: 26.9 µM
--
compound: CC1=NOC(=O)/C1=C\c1ccc(-c2ccccc2Br)o1
IC50: inactive
--
compound: N#CC1=C(N)N(c2ccccc2)C(c2ccccc2)C1(C#N)C#N (stereo not drawn)
IC50: 32.2 µM
--
compound: O=c1c2ccccc2nc(/C=C/c2ccc([N+](=O)[O-])o2)n1CCCO
IC50: inactive
--
compound: O=C(/C=C\c1cccs1)c1c(O)ccc2ccc(=O)oc12
IC50: 4.79 µM
--
compound: O=C(NC1CCCCCC1)c1cc(S(=O)(=O)N2CCCCC2)ccc1N1CCOCC1
IC50: 5.44 µM
--
compound: N#C/C(=C\c1cccc([N+](=O)[O-])c1)C(=O)NCC1CCCO1 (stereo not drawn)
IC50: inactive
--
compound: CC(/C=C1\SC(=S)N(CCCC(=O)Nc2ccc(C(=O)O)cc2)C1=O)=C\c1ccccc1
IC50: 120 µM
--
compound: CS(=O)(=O)N1CCc2cc(-c3csc(NC(=O)Cc4cccs4)n3)ccc21
IC50: inactive
--
compound: CCOCCCNC(=O)/C(C#N)=C/c1ccc(C(=O)OC)cc1
IC50: inactive
--
compound: Cc1cnc2ncc3sccc3c2c1
IC50: 13.5 µM
--
compound: CC1CCCCC1NC(=O)/C(C#N)=C/c1ccccc1F (stereo not drawn)
IC50: 4.75 µM
--
compound: CCc1cccc(NC(=O)CSC2=NS(=O)(=O)c3ccccc32)c1
IC50: inactive

Ref: PubChem BioAssay AID2753
